System: foreskin cells in which senescence was induced by doxorubicin
Experiment: CellTiter-Glo cell viability of doxorubicin-induced senescent foreskin cells (Examples 1-2, 10, 11, 13; Tables 4, 63, 65)
Assay type: cell-based, human
Settings: Homo sapiens, 72 h, 30 μM test compound; doxorubicin-induced senescent foreskin cells; CellTiter-Glo; 0 μM = 100; read-out: Survival (%)
Classify: condition met when viability at 30 µM is strictly less than 30%; condition not met when viability at 30 µM is not.

The examples below pair each entry with its known result.
{"columns": ["compound", "cat"],
 "data": [
  ["COC(=O)/C=C\\C(C#N)(C#N)/N=C/c1ccc(C)cc1", "condition met"],
  ["Cc1onc(C(=O)N2CCN(C(c3ccc(Cl)cc3)c3ccc(Cl)cc3)CC2)c1N(O)O", "condition met"],
  ["CCCCS(=N)(=O)CCC(N)C(=O)O (centres unmarked)", "condition not met"],
  ["COC(=O)C1=C(C)NC(C)=C(C(=O)OC(C)(C)CN(C)CCC(c2ccccc2)c2ccccc2)C1c1cccc([N+](=O)[O-])c1 (centres unmarked) [LX-2801, Lercanidipine, reference compound]", "condition met"],
  ["NCC(=O)CCC(=O)O [LX-1103, 5-Aminolevulinic acid, reference compound]", "condition not met"],
  ["CN(C)c1nc(N(C)C)nc(N(C)C)n1 [LX-501, Altretamine, reference compound]", "condition not met"],
  ["CC1(CCO)CC2(CCC(C(C)(C)C)CC2)OO1 (centres unmarked)", "condition met"]
]}

[in] viability at 30 µM under 30%? Item: CCC(C)SSc1ncc[nH]1 (centres unmarked)
[out] condition met

====

Test system: HMGN1
Assay: HMGN1 ELISA in culture medium of A549 cancer cells (Example 12, Table 66)
Format: cell-based, human
Settings: Homo sapiens, A549, read-out: HMGN1 (amount of HMGN1 secreted in the cell culture)
Assign activity at 30 µM to each entry below.
Numbers only, in %.

{"columns": ["molecule", "endpoint.result"],
 "data": [
  ["CCOc1cc2ncc(C#N)c(Nc3ccc(OCc4ccccn4)c(Cl)c3)c2cc1NC(=O)/C=C/CN(C)C [LX-1608, Neratinib, reference compound]", 317],
  ["C=C1C(=O)C2CCN1CC2", 305],
  ["CCCCCCCCCCCCCCCC[P+](c1ccccc1)(c1ccccc1)c1ccccc1", 289]
]}

# input for lookup
[in] Value lookup for activity at 30 µM; key = CCCC[C@H]1Cc2c([nH]c3ccccc23)[C@H](c2ccc(NC3CCC3)cc2)N1C(=O)C#C[Si](C)(C)C
[out] 336

====

Assign activity at 90 µM to each entry below.
Test system: HMGN1
Experiment: HMGN1 ELISA in culture medium of foreskin cells (Examples 10, 11; Tables 62, 63, 64)
Type: cell-based, human
Conditions: Homo sapiens, 90 μM test compound, doxorubicin-treated foreskin cells, DMSO = 100
Give bare numbers, in %.

{"columns": ["compound", "activity at 90 µM, %"],
 "data": [
  ["Cc1oncc1C(=O)Nc1ccc(C(F)(F)F)cc1 [LX-1603, Leflunomide, reference compound]", 168],
  ["CN(C)c1nc(N(C)C)nc(N(C)C)n1 [LX-501, Altretamine, reference compound]", 168],
  ["CC1=CCC(c2cc(C(=O)C3CCC(c4ccc(C#N)cc4)CC3)c(C)cc2C2CCC2)=C1 (stereo not shown) [LX-305]", 199],
  ["C=C(CC)C(=O)c1ccc(OCC(=O)O)c(Cl)c1Cl [LX-2603, Ethacrynic acid, reference compound]", 218],
  ["O=C(NCc1ccncc1)C12CC3CC(C1)CC(c1ccc(Cl)cc1)(C3)C2 [LX-3106, Opaganib, reference compound]", 254]
]}

Look up activity at 90 µM for the entries below, preserving their order.
1. CC/C=C\C/C=C\C/C=C\C/C=C\C/C=C\C/C=C\CCC(=O)O [LX-2702, Docosahexaenoic acid]
2. CCCCC/C=C\C/C=C\C/C=C\CCCCCCC(=O)O [LX-2705, Dihomogamma-linolenic acid]

[out]
206
202

Source listed as patent US20250108036A1.
